# System: mice
# assay-details: Acute toxicity resulting from single under skin injection in mice
# Type: in vivo, male ddY mice
# condition-context: single under skin injection 1 g/kg, weighed on days 1, 3, 6, 7
measured-quantity: body weight of the mice following injection

molecule="Cc1ccc(OC(=O)c2ccc3ccccc3c2)cc1 [CU-5004, p-tolyl-2-naphthyl carboxylate]" value_reported=decreased
molecule="COc1ccc(C(=O)Oc2ccc(C)cc2)cc1 [CU-5009, p-tolyl anisate]" value_reported=decreased
molecule=COc1cccc(C(=O)Oc2ccc(C)cc2)c1 value_reported=decreased

----------
# Test system: mice
# assay-details: Acute toxicity resulting from single under skin injection in mice
# Assay type: in vivo, male ddY mice
# condition-context: single under skin injection 1 g/kg, groups of five mice, observed 1 week
measured-quantity: Case of death

Ask | For the molecule Cc1ccc(OC(=O)c2ccc3ccccc3c2)cc1 [CU-5004, p-tolyl-2-naphthyl carboxylate] , give its measured Case of death value.
Reply | 0/5

Ask | For the molecule O=C(Oc1ccc2ccccc2c1)c1ccccc1F [CU-10005] , give its measured Case of death value.
Reply | 0/5

Ask | Please give the documented Case of death of COc1ccc(C(=O)Oc2ccc(C)cc2)cc1 [CU-5009, p-tolyl anisate]
Reply | 0/5

Ask | Determine from records and report Case of death for COc1cccc(C(=O)Oc2ccc(C)cc2)c1 [CU-5008]
Reply | 0/5
